Hello, the source for this data is ChEMBL document CHEMBL3585300, in case you need it.

- system under test: Cathepsin K (Homo sapiens) (UniProt P43235)
- Sequence (whole entry): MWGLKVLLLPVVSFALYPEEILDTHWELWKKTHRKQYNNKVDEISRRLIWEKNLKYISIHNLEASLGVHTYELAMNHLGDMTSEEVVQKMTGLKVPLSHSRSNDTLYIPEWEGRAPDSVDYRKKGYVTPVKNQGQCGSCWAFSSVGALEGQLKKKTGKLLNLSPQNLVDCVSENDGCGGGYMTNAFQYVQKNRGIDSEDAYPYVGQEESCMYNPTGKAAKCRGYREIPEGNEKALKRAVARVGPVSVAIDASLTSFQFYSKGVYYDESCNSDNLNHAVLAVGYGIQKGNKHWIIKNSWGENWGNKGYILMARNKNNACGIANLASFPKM
- assay protocol: Inhibition of human cathepsin K incubated for 15 mins using Z-Leu-Arg-AMC substrate by spectrofluorometry
measurement name: IP (nM)

[1] C[C@@H](C#N)NC(=O)[C@@H]1C[C@@H](F)CC[C@H]1c1nc(C2(C(F)(F)F)CC2)sc1-c1ccc(N2CCS(=O)(=O)CC2)cc1
[2] N#CC1(NC(=O)[C@@H]2CCCC[C@H]2c2nc(C3CC(F)(F)C3)sc2-c2ccc(N3CCS(=O)(=O)CC3)cc2)CC1
[3] CC(C)(C)c1nc([C@@H]2CCCC[C@H]2C(=O)NCC#N)c(-c2ccc(N3CCS(=O)(=O)CC3)cc2)s1
[4] N#CC1(NC(=O)[C@@H]2CCCC[C@H]2c2nc(-c3cccc(C4CCOCC4)c3)sc2-c2ccc(N3CCS(=O)(=O)CC3)cc2)CC1
Enquiry: Ranking request: IP, max to min, items above. Provide your answer as the labels ordered per the instruction.
Return: 2, 1, 4, 3

---

- system under test: Cathepsin F (Homo sapiens)
- assay protocol: Inhibition of human cathepsin F incubated for 15 mins using Z-Phe-Arg-AMC substrate by spectrofluorometry
measurement name: IP (nM)

Consider the worked cases shown below.
{"smiles notation": "N#CC1(NC(=O)[C@@H]2CCCC[C@H]2c2nc(C3CC(F)(F)C3)sc2-c2ccc(N3CCS(=O)(=O)CC3)cc2)CC1", "quantitative readout": 1000}
{"smiles notation": "N#CC1(NC(=O)[C@@H]2CCCC[C@H]2c2nc(-c3cccc(C4CCOCC4)c3)sc2-c2ccc(N3CCS(=O)(=O)CC3)cc2)CC1", "quantitative readout": 3330}

[I] C[C@@H](C#N)NC(=O)[C@@H]1C[C@@H](F)CC[C@H]1c1nc(C2(C(F)(F)F)CC2)sc1-c1ccc(N2CCS(=O)(=O)CC2)cc1
[II] CC(C)(C)c1nc([C@@H]2CCCC[C@H]2C(=O)NCC#N)c(-c2ccc(N3CCS(=O)(=O)CC3)cc2)s1
Enquiry: I would appreciate it if you could say which entry, I or II , has the lower IP value. // return label of chosen record
Return: II
